Sourced from ChEMBL document CHEMBL1151589

- Assay Text: Compound was tested for inhibitory activity against Carboxypeptidase A
Quantity Measured: Ki (µM)
State the answer as a number, implicitly in µM.

-- ask For the compound O=C(O)C(CS)Cc1ccccc1 (racemic) , report Ki.
-- reply 11
